target: NMB receptor (Rattus norvegicus, UniProt P24053); assay: [3H]inositol phosphates in NMB-R transfected cells (alone or NMB-stimulated); format: cell-based; set-up: a full length NMB-preferring bombesin receptor clone generated from rat esophagus; expressed in transfected cells; settings: NMB-R transfected cells; analog 10 μM plus NMB 3 nM; NMB without analog 186 ± 58
Sequence (P24053 whole entry): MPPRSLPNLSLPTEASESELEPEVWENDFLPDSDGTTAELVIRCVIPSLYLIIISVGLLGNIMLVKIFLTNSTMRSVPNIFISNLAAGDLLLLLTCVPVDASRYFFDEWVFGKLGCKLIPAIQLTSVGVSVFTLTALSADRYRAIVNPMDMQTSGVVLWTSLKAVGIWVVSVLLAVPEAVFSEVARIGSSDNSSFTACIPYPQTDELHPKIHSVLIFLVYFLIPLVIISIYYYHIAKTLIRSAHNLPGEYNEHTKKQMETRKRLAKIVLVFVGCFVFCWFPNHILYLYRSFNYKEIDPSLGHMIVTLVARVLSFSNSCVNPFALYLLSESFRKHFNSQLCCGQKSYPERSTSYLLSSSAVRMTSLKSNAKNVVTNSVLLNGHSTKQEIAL
Where a SMILES comes first, the peptide text is derived from it. Bridges are numbered along the chain shown (N, C = ends). [ ]: non-standard residue; d: D form. 2Nal = N[C@@H](Cc1ccc2ccccc2c1)C(=O)O; d2Nal = N[C@H](Cc1ccc2ccccc2c1)C(=O)O
The compounds listed here are annotated with their [3H]IP, analog Plus NMB (3 nM).
// return numeric value only (unit: dym × 10^3, not printed)

Completed entries (count: 6):
{"columns": ["compound", "[3H]IP, analog Plus NMB (3 nM) [dym × 10^3]"],
 "data": [
  ["CC(C)[C@@H]1NC(=O)[C@H](Cc2c[nH]cn2)NC(=O)[C@@H](Cc2c[nH]c3ccccc23)NC(=O)[C@H](Cc2ccc(O)cc2)NC(=O)[C@@H](NC(=O)[C@H](N)Cc2ccc3ccccc3c2)CSSC[C@@H](C(=O)N[C@@H](Cc2ccc3ccccc3c2)C(N)=O)NC1=O [Analog #14] (H-[d2Nal]CY[dW]HVC[2Nal]-NH2; disulfide 2-7; N-terminus assumed)", 97],
  ["CC(C)[C@@H]1NC(=O)[C@H](CCCCN)NC(=O)[C@@H](Cc2c[nH]c3ccccc23)NC(=O)[C@H](Cc2ccc(O)cc2)NC(=O)[C@@H](NC(=O)[C@H](N)Cc2ccccc2)CSSC[C@@H](C(=O)N[C@@H](Cc2ccc3ccccc3c2)C(N)=O)NC1=O [Analog #4] (H-[dF]CY[dW]KVC[2Nal]-NH2; disulfide 2-7)", 33],
  ["NCCCC[C@@H]1NC(=O)[C@@H](Cc2c[nH]c3ccccc23)NC(=O)[C@H](Cc2ccc(O)cc2)NC(=O)[C@@H](NC(=O)[C@H](N)Cc2ccc3ccccc3c2)CSSC[C@@H](C(=O)N[C@@H](Cc2ccc3ccccc3c2)C(N)=O)NC(=O)[C@H](Cc2ccccc2)NC1=O [Analog #13] (H-[d2Nal]CY[dW]KFC[2Nal]-NH2; disulfide 2-7)", 9],
  ["CC(C)[C@@H]1NC(=O)[C@H](CCCCN)NC(=O)[C@@H](Cc2c[nH]c3ccccc23)NC(=O)[C@H](Cc2ccc(O)cc2)NC(=O)[C@@H](NC(=O)[C@H](N)Cc2ccc3ccccc3c2)CSSC[C@@H](C(=O)N[C@H](Cc2ccc3ccccc3c2)C(N)=O)NC1=O [Analog #8] (H-[d2Nal]CY[dW]KVC[d2Nal]-NH2; disulfide 2-7)", 67],
  ["NCCCC[C@@H]1NC(=O)[C@@H](Cc2c[nH]c3ccccc23)NC(=O)[C@H](Cc2ccc(O)cc2)NC(=O)[C@@H](NC(=O)[C@H](N)Cc2ccc3ccccc3c2)CSSC[C@@H](C(=O)N[C@@H](Cc2ccc3ccccc3c2)C(N)=O)NC(=O)[C@H](Cc2ccc3ccccc3c2)NC1=O [Analog #3] (H-[d2Nal]CY[dW]K[2Nal]C[2Nal]-NH2; disulfide 2-7)", 65],
  ["CC(C)[C@@H]1NC(=O)[C@H](CCCCN)NC(=O)[C@@H](Cc2c[nH]c3ccccc23)NC(=O)[C@H](Cc2ccc3ccccc3c2)NC(=O)[C@@H](NC(=O)[C@H](N)Cc2ccccc2)CSSC[C@@H](C(=O)N[C@H](C(N)=O)[C@@H](C)O)NC1=O [Analog #18] (H-[dF]C[2Nal][dW]KVCT-NH2; disulfide 2-7)", 143]
]}

Moving on to the next compound.
Supply reported [3H]IP, analog Plus NMB (3 nM) belonging to this compound: CC(C)[C@@H]1NC(=O)[C@H](CCCCN)NC(=O)[C@@H](Cc2c[nH]c3ccccc23)NC(=O)[C@H](Cc2ccc(O)cc2)NC(=O)[C@@H](NC(=O)[C@H](N)Cc2ccc3ccccc3c2)CSSC[C@H](C(=O)N[C@@H](Cc2ccc3ccccc3c2)C(N)=O)NC1=O [Analog #11] (H-[d2Nal]CY[dW]KV[dC][2Nal]-NH2; disulfide 2-7)
7

###

pKi: recorded values
biological target: rat NMB receptor (Rattus norvegicus, UniProt P24053); construct: a full length NMB-preferring bombesin receptor clone generated from rat esophagus; expressed in transfected cells; test: Binding of 125I-[D-Tyr0]NMB to NMB-R transfected BALB 3T3 cells; details: NMB-R transfected BALB 3T3 cells; Ki by Cheng method; read-out: Ki 125I-NMB Binding, NMB Receptor, Transfected Cells
Sequence (P24053 whole entry): as above
Where a SMILES comes first, the peptide text is derived from it. Bridges are numbered along the chain shown (N, C = ends). [ ]: non-standard residue; d: D form. 2Nal = N[C@@H](Cc1ccc2ccccc2c1)C(=O)O; d2Nal = N[C@H](Cc1ccc2ccccc2c1)C(=O)O
pKi is defined as minus the log10 of a concentration measured in mol/L.

These solved cases illustrate the format of a correct answer.
{"columns": ["molecule", "pKi"],
 "data": [
  ["CC(C)[C@@H]1NC(=O)[C@H](CCCCN)NC(=O)[C@@H](Cc2c[nH]c3ccccc23)NC(=O)[C@H](Cc2ccc(O)cc2)NC(=O)[C@@H](NC(=O)[C@H](N)Cc2c[nH]c3ccccc23)CSSC[C@@H](C(=O)N[C@@H](Cc2ccc3ccccc3c2)C(N)=O)NC1=O [Analog #12] (H-[dW]CY[dW]KVC[2Nal]-NH2; disulfide 2-7)", 5.85],
  ["CC(C)[C@@H]1NC(=O)[C@H](CCCCN)NC(=O)[C@@H](Cc2ccc3ccccc3c2)NC(=O)[C@H](Cc2ccc(O)cc2)NC(=O)[C@@H](NC(=O)[C@H](N)Cc2ccc3ccccc3c2)CSSC[C@@H](C(=O)N[C@@H](Cc2ccc3ccccc3c2)C(N)=O)NC1=O [Analog #17] (H-[d2Nal]CY[d2Nal]KVC[2Nal]-NH2; disulfide 2-7)", 6.40],
  ["CC(C)[C@@H]1NC(=O)[C@H](CCCCN)NC(=O)[C@@H](Cc2c[nH]c3ccccc23)NC(=O)[C@H](Cc2ccc(O)cc2)NC(=O)[C@@H](NC(=O)[C@@H](N)Cc2ccc3ccccc3c2)CSSC[C@@H](C(=O)N[C@H](Cc2ccc3ccccc3c2)C(N)=O)NC1=O [Analog #9] (H-[2Nal]CY[dW]KVC[d2Nal]-NH2; disulfide 2-7)", 5.94]
]}

Lab note: next molecule to report on.
For NCCCC[C@@H]1NC(=O)[C@@H](Cc2c[nH]c3ccccc23)NC(=O)[C@H](Cc2ccc(O)cc2)NC(=O)[C@@H](NC(=O)[C@H](N)Cc2ccc3ccccc3c2)CSSC[C@@H](C(=O)N[C@@H](Cc2ccc3ccccc3c2)C(N)=O)NC(=O)[C@H](Cc2ccccc2)NC1=O [Analog #13] (H-[d2Nal]CY[dW]KFC[2Nal]-NH2; disulfide 2-7) , write its pKi.
6.40

###

biological target: rat NMB receptor (Rattus norvegicus); construct: a full length NMB-preferring bombesin receptor clone generated from rat esophagus; expressed in transfected cells; assay: Binding of 125I-[D-Tyr0]NMB to NMB-R transfected BALB 3T3 cells; conditions: NMB-R transfected BALB 3T3 cells; Ki by Cheng method; read-out: Ki 125I-NMB Binding, NMB Receptor, Transfected Cells
Where a SMILES comes first, the peptide text is derived from it. Bridges are numbered along the chain shown (N, C = ends). [ ]: non-standard residue; d: D form. 2Nal = N[C@@H](Cc1ccc2ccccc2c1)C(=O)O
reported endpoint: pKi
Please note pKi is a logarithmic value: minus log10 of concentration in mol/L. Answer with that number alone.

Example entries begin here.
{"columns": ["molecule", "pKi"],
 "data": [
  ["C[C@@H](O)[C@H](NC(=O)[C@@H]1CSSC[C@H](NC(=O)[C@H](N)Cc2ccc3ccccc3c2)C(=O)N[C@@H](Cc2ccc(O)cc2)C(=O)N[C@H](Cc2c[nH]c3ccccc23)C(=O)N[C@@H](CCCCN)C(=O)N[C@@H]([C@@H](C)O)C(=O)N1)C(N)=O [Analog #6]", 4.79],
  ["CC(C)[C@@H]1NC(=O)[C@H](CCCCN)NC(=O)[C@@H](Cc2c[nH]c3ccccc23)NC(=O)[C@H](Cc2ccc(O)cc2)NC(=O)[C@@H](NC(=O)[C@H](N)Cc2ccccc2)CSSC[C@@H](C(=O)N[C@@H](Cc2ccc3ccccc3c2)C(N)=O)NC1=O [Analog #4] (H-[dF]CY[dW]KVC[2Nal]-NH2; disulfide 2-7)", 6.09]
]}

Would you kindly look at the next entry?
Output pKi of C[C@@H](O)[C@@H]1NC(=O)[C@H](CCCCN)NC(=O)[C@@H](Cc2c[nH]c3ccccc23)NC(=O)[C@H](Cc2ccc(O)cc2)NC(=O)[C@@H](NC(=O)[C@H](N)Cc2ccccc2)CSSC[C@@H](C(=O)N[C@@H](Cc2ccc3ccccc3c2)C(N)=O)NC1=O [Analog #7] (H-[dF]CY[dW]KTC[2Nal]-NH2; disulfide 2-7)
5.36
